test.summary: clinical
condition.context: human, in vivo, 160 mg/m2
measured.metric: AUC(0-inf) (µM·h)
One number for each entry, in µM·h.

Which AUC(0-inf) is listed for C=CCn1c(=O)c2cnc(Nc3ccc(N4CCN(C)CC4)cc3)nc2n1-c1cccc(C(C)(C)O)n1 ?
11.4

* * *

test.summary: clinical
condition.context: human, in vivo, 95 mg/m2
measured.metric: half-life (h)
Give bare numbers, in h.

Which half-life is listed for C=CCn1c(=O)c2cnc(Nc3ccc(N4CCN(C)CC4)cc3)nc2n1-c1cccc(C(C)(C)O)n1 [adavosertib] ?
4.5

* * *

test.summary: clinical
condition.context: human, in vivo, 160 mg/m2
measured.metric: AUC (µM·h)
Give bare numbers, in µM·h.

Which AUC is listed for C=CCn1c(=O)c2cnc(Nc3ccc(N4CCN(C)CC4)cc3)nc2n1-c1cccc(C(C)(C)O)n1 [adavosertib] ?
12.8
